# Tested on: SMN2 mRNA
# TEST_SUMMARY: RT-qPCR splicing assay panel, SMN2 canonical junction (CJ) mRNA
# Format: cell-based, human
# RUN_CONDITIONS: Homo sapiens, canonical junction (CJ) mRNA, RT-qPCR panel, Table 4A; read-out: SMN2, decrease in CJ mRNA levels, IC50
METRIC_NAME: IC50

[
  {
    "MOLECULE": "COc1cc(-c2cc(O)c(-c3ccc(N4CC[C@@H](NC5CCC5)C4)nn3)cc2F)cnn1",
    "SYSTEM_NAME": "SMN2 mRNA",
    "RECORDED_RESULT": "< 100 nM"
  },
  {
    "MOLECULE": "CNc1cc(-c2ccc(-c3ccc(N4CC[C@H](NC(C)(C)C)C4)nn3)c(O)c2)ncn1",
    "SYSTEM_NAME": "SMN2 mRNA",
    "RECORDED_RESULT": "< 100 nM"
  },
  {
    "MOLECULE": "COc1cc(-c2ccc(-c3ccc(N4CCC(NC5CCC5)C4)nn3)c(O)c2)ccn1 (stereo not shown)",
    "SYSTEM_NAME": "SMN2 mRNA",
    "RECORDED_RESULT": "100 to 1000 nM"
  }
]

From here, focus on the item given below.
What does the data say about its IC50? Entry: CC(C)(C)N[C@@H]1CCN(c2ccc(-c3ccc(-c4cn[nH]c4)cc3O)nn2)C1 < 100 nM

* * *

# System: Target C mRNA
# TEST_SUMMARY: RT-qPCR splicing assay panel, Target C canonical junction (CJ) mRNA
# Type: cell-based, human
# RUN_CONDITIONS: Homo sapiens, canonical junction (CJ) mRNA, RT-qPCR panel, Table 4A; read-out: Target C, decrease in CJ mRNA levels, IC50
pIC50: −log10 of the molar value.
METRIC_NAME: pIC50

[
  {
    "MOLECULE": "COc1cc(-c2ccc(-c3ccc(N4CCC(N[C@H]5C[C@@H](OC)C5)C4)nn3)c(O)c2)cnn1 (stereo partly shown) [Compound 404]",
    "pIC50": "6.00 to 7.00"
  },
  {
    "MOLECULE": "COc1cncc(-c2cc(O)c(-c3ccc(N4CC[C@@H](NC5CCC5)C4)nn3)cc2F)c1 [Compound 225]",
    "pIC50": "< 5.00"
  },
  {
    "MOLECULE": "COc1cc(-c2cc(O)c(-c3cnc(N4CC[C@H](NC5CCC5)C4)nn3)cc2F)cnn1 [Compound 321]",
    "pIC50": "6.00 to 7.00"
  }
]

Notebook entry, Target C mRNA assay: pIC50 of Oc1cc(-c2cnc(C(F)F)s2)c(F)cc1-c1ccc(N2CCC(NC3CCC3)C2)nn1 (stereo not shown) [Compound 389] = ? 5.00 to 6.00

Notebook entry, Target C mRNA assay: pIC50 of COc1cc(-c2ccc(-c3ccc(N4CC[C@H](NC5CC5)C4)nn3)c(O)c2)cnn1 [Compound 215] = ? 6.00 to 7.00

Notebook entry, Target C mRNA assay: pIC50 of COc1cc(-c2ccc(-c3ccc(N4CCC(N[C@H]5C[C@@H](O)C5)C4)nn3)c(O)c2)cnn1 (stereo partly shown) [Compound 403] = ? 6.00 to 7.00

Notebook entry, Target C mRNA assay: pIC50 of Cc1ncc(-c2ccc(-c3ccc(OC4CC(C)(C)NC(C)(C)C4)nn3)c(O)c2)s1 [Compound 329] = ? > 7.00

Notebook entry, Target C mRNA assay: pIC50 of Cc1ncc(-c2cc(O)c(-c3ccc(N4CC[C@@H](N(C)C(C)(C)C)C4)nn3)cc2F)s1 [Compound 339] = ? > 7.00

Notebook entry, Target C mRNA assay: pIC50 of COc1cc(-c2cc(O)c(-c3ccc(N4CCC(N[C@H]5C[C@H](F)C5)C4)nn3)cc2F)cnn1 (stereo partly shown) [Compound 274] = ? 6.00 to 7.00

Notebook entry, Target C mRNA assay: pIC50 of Cc1ncc(-c2cc(O)c(-c3ccc(N4CC[C@H](N[C@H](C)C5CC5)C4)nn3)cc2F)s1 [Compound 372] = ? > 7.00
